Reported Papp values are given for each entry in this list.
Assay: Permeability of the compound by PAMPA
Assay type: physicochemical
Conditions: read-out: permeability
I only need the number, in ×10⁻⁶ cm/s, no unit after it.

Some solved entries appear below for comparison.
>  <input_smiles>
CN(Cc1ccccc1)Cc1ccc(C(=O)NCCc2c[nH]c3ccc(O)cc23)cc1

>  <reading_unit>
×10⁻⁶ cm/s

>  <assay_result>
5

$$$$
>  <input_smiles>
COc1ccc2[nH]cc(CCNC(=O)c3ccc(CN(C)Cc4ccccc4Cl)cc3)c2c1

>  <reading_unit>
×10⁻⁶ cm/s

>  <assay_result>
5.9

$$$$
>  <input_smiles>
COc1ccc2c(CCNC(=O)c3ccc(CN(C)Cc4ccccc4)cc3)c[nH]c2c1

>  <reading_unit>
×10⁻⁶ cm/s

>  <assay_result>
7.2

$$$$
>  <input_smiles>
COc1ccccc1CN(C)Cc1ccc(C(=O)NCCc2c[nH]c3ccccc23)cc1

>  <reading_unit>
×10⁻⁶ cm/s

>  <assay_result>
8.8

$$$$
>  <input_smiles>
CN(Cc1ccc(C(=O)NCCc2c[nH]c3ccccc23)cc1)Cc1cccc(Cl)c1

>  <reading_unit>
×10⁻⁶ cm/s

>  <assay_result>
7.1

$$$$

Input: Can you share its Papp? I mean this molecule: `COc1ccc2c(CCNC(=O)c3ccc(CN(C)Cc4cccc(Cl)c4)cc3)c[nH]c2c1`
Output: 7.9

Input: Tell me the measured Papp of `COc1ccc2[nH]cc(CCNC(=O)c3ccc(CN(C)Cc4ccccc4)cc3)c2c1` , please.
Output: 7.1

Input: Reported Papp for `CN(Cc1ccc(C(=O)NCCc2c[nH]c3ccccc23)cc1)Cc1ccccc1Cl` : what is it?
Output: 5.8

Input: So what's the measured Papp for this one? `COc1ccc2[nH]cc(CCNC(=O)c3ccc(CN(C)Cc4ccccc4OC)cc3)c2c1`
Output: 9.9

Input: So what does the record say about Papp for `CN(Cc1ccccc1)Cc1ccc(C(=O)NCCc2c[nH]c3cc(F)ccc23)cc1` ?
Output: 6.6

Input: Which Papp is reported for this molecule? `CN(Cc1ccccc1)Cc1ccc(C(=O)NCCc2c[nH]c3ccccc23)cc1`
Output: 7.4

Input: May I ask what Papp has been recorded for `COc1cccc(CN(C)Cc2ccc(C(=O)NCCc3c[nH]c4ccc(OC)cc34)cc2)c1` ?
Output: 8.7

Input: Quick one: Papp of `COc1ccc2[nH]cc(CCNC(=O)c3ccc(CN(C)Cc4cccc(Cl)c4)cc3)c2c1` ?
Output: 7.9

Input: Value lookup for Papp; key = `COc1cccc(CN(C)Cc2ccc(C(=O)NCCc3c[nH]c4ccccc34)cc2)c1`
Output: 8.8

====

Assay: Antioxidant activity assessed as oxygen radical absorbance capacity after 15 mins fluorescence assay relative to trolox
Format: functional
parameter: Activity

Solved entries (count: 2):
>  <input_smiles>
COc1ccc2[nH]cc(CCNC(=O)c3ccc(CN(C)Cc4cccc(Cl)c4)cc3)c2c1

>  <assay_result>
2.6

$$$$
>  <input_smiles>
COc1cccc(CN(C)Cc2ccc(C(=O)NCCc3c[nH]c4ccccc34)cc2)c1

>  <assay_result>
2.7

$$$$

Input: Item `COc1ccc2[nH]cc(CCNC(=O)c3ccc(CN(C)Cc4ccccc4Cl)cc3)c2c1` has what recorded Activity?
Output: 2.5

Input: I have this compound here, `CN(Cc1ccccc1)Cc1ccc(C(=O)NCCc2c[nH]c3ccccc23)cc1` , and I need its recorded Activity.
Output: 3.2

Input: Could you share which Activity value was measured for `COc1cccc(CN(C)Cc2ccc(C(=O)NCCc3c[nH]c4ccc(OC)cc34)cc2)c1` ?
Output: 2.5
